The compounds listed here are annotated with their melting point.

Compound	Measure Unit	melting point
OC(=S)Cc1cc(Cl)ccc1Cl	°C	118
CC(C)C(c1ccc(NC(=O)CC(=O)c2ccccc2)c([N+](=O)[O-])c1)n1ccnc1 (stereo not given)	°C	106

====

Compound	melting point
COc1cc(C=O)c(OC)cc1Cl	109 °C
CC(=O)OCc1csc(Nc2ccc(Oc3ccccc3)cn2)n1	158 to 160 °C
Nc1ccn([C@@H]2C[C@H](CO)[C@@H](O)[C@H]2O)c(=O)n1	214 °C
CCOC(=O)c1cnc2c(cnn2Cc2ccncc2)c1O	140 °C
C=CCOc1ccccc1OCCOS(C)(=O)=O	61 to 63 °C
CC1=Nc2c(C)nn(C)c2C2=NC(C)CN12 (stereo not given)	169 to 172 °C
Cc1oc(-c2ccco2)nc1CCOc1ccc([N+](=O)[O-])cn1	120 to 122 °C
Cc1cccc(NC(=O)NC2N=C(c3ccccc3F)c3ccccc3N(CCOC(=O)N3CC4CCC(CC4)C3)C2=O)c1 (racemic)	169 to 171 °C
FC(F)(F)c1cccc(N=C2SCCN2C(=S)Nc2cccc(C(F)(F)F)c2)c1	116 to 117 °C
CCCCCCCCCCCCCCn1ccc(C(=O)OCC)c1	32 to 33 °C
